This collection of values is drawn from patent US20090291081A1.

- Test Target: T1, human IL-1α (human, UniProt P01583 113-271)
- T1 sequence (looked up): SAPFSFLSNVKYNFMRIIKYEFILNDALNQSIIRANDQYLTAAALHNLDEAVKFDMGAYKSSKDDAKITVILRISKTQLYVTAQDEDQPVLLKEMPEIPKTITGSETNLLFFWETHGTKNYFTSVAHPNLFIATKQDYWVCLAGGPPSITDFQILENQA
- Assay Notes: cell-based or functional assay
Measure Name: ND50 (nM)

Previously resolved entries follow.
* ABT1-67 (other) VL: DIQMTQSPSSLSASVGDRVTITCRASQSIHRSLRWYQQKPGKAPKLLIYHASHLQSGVPSRFSGSGSGTDFTLTISSLQPEDFATYYCQQYKRRPSTFGQGTKVEIKR | 0.044
* ABT1-141-49 (other, VK dAb) VL: DIQMTQSPSSLSASVGDRVTITCRASQWIQKQLAWYQLKPGKAPKLLIYSSSHSQSGVPSRFSGSGSGTDFTLTISSLQPEDFATYYCQQHLRVPMTFGQGTKVEIKR | 5

[P] ABT1-141-31 (other) VL: DIQMTQSPSSLSASVGDRVTITCRASQWIQKQLAWYQQKPGKAPKLLIYSSSWLQSGVPSRFSGSGSGTDFTLTISSLQPEDFATYYCQQHLRVPMTFGQGTKVEIKR
[Q] ABT1-95-165 (other) VL: DIQMTQSPSSLSASVGDRVTITCRASQPIVRNMRWYQQKPGKAPKLLIYSSSYLEPGVPSRFSGSGSGTDFTLTISSLQPEDFATYHCQQGYRWPVTFGQGTKVEIKR
[R] ABT1-95-170 (other) VL: DIQMTQSPSSLSASVGDRVTITCRASRPIVRNLRWYQQKPGKAPKLLIYASSYLEPGVPSRFSGSGSGTDFTLTISSLQPEDFATYHCQQGYRWPVTFGQGTKVEIKR
Task field, ranking: reported ND50, descending order. # output: labels, in the requested order P, Q, R
